# Tested on: PANC-1
# test name: Cytotoxicity against human PANC1 cells after 48 hrs by SRB assay
# Assay type: functional
# assay conditions: PANC-1, 48 h
# key: entry, value: TGI
value type: TGI (nM)

- C/C=C1\NC(=O)[C@H](Cc2ccccc2)NC(=O)[C@@H](C(C)C)NC(=O)[C@@H]([C@H](C)CC)NC(=O)[C@H](NC(=O)[C@H](NC(=O)[C@H](CCCN)NC(=O)[C@H]2CCCN2C(=O)[C@H](NC(=O)[C@@H](NC(=O)[C@@H](NC(=O)CNC(=O)CCCC(C)C)[C@@H](C)O)C(C)C)C(C)C)[C@H](C)CC)[C@H](C)OC(=O)[C@H](C(C)C)NC1=O: 1250
- C/C=C1\NC(=O)[C@H](Cc2ccccc2)NC(=O)[C@@H](C(C)C)NC(=O)[C@@H]([C@H](C)CC)NC(=O)[C@H](NC(=O)[C@H](NC(=O)[C@H](CCCN)NC(=O)[C@H]2CCCN2C(=O)[C@H](NC(=O)[C@@H](NC(=O)[C@@H](NC(=O)[C@@H](Cc2ccccc2)NC(=O)CCCC(C)C)[C@@H](C)O)C(C)C)C(C)C)[C@H](C)CC)[C@H](C)OC(=O)[C@H](C(C)C)NC1=O: 4760
- C/C=C1\NC(=O)[C@H](Cc2ccccc2)NC(=O)[C@@H](C(C)C)NC(=O)[C@@H]([C@H](C)CC)NC(=O)[C@H](NC(=O)[C@H](NC(=O)[C@H](CCC(=O)O)NC(=O)[C@H]2CCCN2C(=O)[C@H](NC(=O)[C@@H](NC(=O)[C@@H](NC(=O)[C@H](NC(=O)CCCC(C)C)C(C)C)[C@@H](C)O)C(C)C)C(C)C)[C@H](C)CC)[C@H](C)OC(=O)[C@H](C(C)C)NC1=O: 2540

* * *

# Test system: LNCaP
# test name: Cytotoxicity against human LNcaP cells after 48 hrs by SRB assay
# Assay type: functional
value type: GI50 (nM)

* C/C=C1\NC(=O)[C@H](Cc2ccccc2)NC(=O)[C@@H](C(C)C)NC(=O)[C@@H]([C@H](C)CC)NC(=O)[C@H](NC(=O)[C@H](NC(=O)[C@H](CCCN)NC(=O)[C@H]2CCCN2C(=O)[C@H](NC(=O)[C@@H](NC(=O)[C@@H](NC(=O)[C@@H](CCCN)NC(=O)CCCC(C)C)[C@@H](C)O)C(C)C)C(C)C)[C@H](C)CC)[C@H](C)OC(=O)[C@H](C(C)C)NC1=O | 853
* C/C=C1\NC(=O)[C@H](Cc2ccccc2)NC(=O)[C@@H](C(C)C)NC(=O)[C@@H]([C@H](C)CC)NC(=O)[C@H](NC(=O)[C@H](NC(=O)[C@H](CCCN)NC(=O)[C@H]2CCCN2C(=O)[C@H](NC(=O)[C@@H](NC(=O)[C@@H](NC(=O)[C@H](NC(=O)Cc2cc(F)cc(F)c2)C(C)C)[C@@H](C)O)C(C)C)C(C)C)[C@H](C)CC)[C@H](C)OC(=O)[C@H](C(C)C)NC1=O | 1650
* C/C=C1\NC(=O)[C@H](Cc2ccc(I)cc2)NC(=O)[C@@H](C(C)C)NC(=O)[C@@H]([C@H](C)CC)NC(=O)[C@H](NC(=O)[C@H](NC(=O)[C@H](CCCN)NC(=O)[C@H]2CCCN2C(=O)[C@H](NC(=O)[C@@H](NC(=O)[C@@H](NC(=O)[C@H](NC(=O)CC[C@@H](C)CC)C(C)C)[C@@H](C)O)C(C)C)C(C)C)[C@H](C)CC)[C@H](C)OC(=O)[C@H](C(C)C)NC1=O | 345
* C/C=C1\NC(=O)[C@H](Cc2c[nH]c3ccccc23)NC(=O)[C@@H](C(C)C)NC(=O)[C@@H]([C@H](C)CC)NC(=O)[C@H](NC(=O)[C@H](NC(=O)[C@H](CCCN)NC(=O)[C@H]2CCCN2C(=O)[C@H](NC(=O)[C@@H](NC(=O)[C@@H](NC(=O)[C@H](NC(=O)CCCC(C)C)C(C)C)[C@@H](C)O)C(C)C)C(C)C)[C@H](C)CC)[C@H](C)OC(=O)[C@H](C(C)C)NC1=O | 2060
* C/C=C1\NC(=O)[C@H](Cc2ccccc2Cl)NC(=O)[C@@H](C(C)C)NC(=O)[C@@H]([C@H](C)CC)NC(=O)[C@H](NC(=O)[C@H](NC(=O)[C@H](CCCN)NC(=O)[C@H]2CCCN2C(=O)[C@H](NC(=O)[C@@H](NC(=O)[C@@H](NC(=O)[C@H](NC(=O)CCCC(C)C)C(C)C)[C@@H](C)O)C(C)C)C(C)C)[C@H](C)CC)[C@H](C)OC(=O)[C@H](C(C)C)NC1=O | 92.8
